Below, each of the molecules is paired with its reported composite z-score value.
Test system: glycogen synthase kinase-3 (GSK3A per assay name; protocol says GSK3B)
experiment-notes: GSK3 binders on small-molecule microarrays, primary screen, biochemical, small-molecule microarray, 635 nm fluorescence, GSK3A (AID 1103); note: the record names both GSK3A and GSK3B
condition-set: small-molecule microarray binding, fluorescence 635 nm; higher = more signal

Would you please look over these solved cases?
molecule	system	composite z-score
CC(C)=CCCC(C)=CCON=C1[C@H]2CCn3c(=O)n(Cc4cc5c(cc4Cl)OCO5)c(=O)n3[C@H]2[C@H](O)[C@@H]2O[C@H]12	glycogen synthase kinase-3 (GSK3A per assay name; protocol says GSK3B)	0.173
COC(=O)[C@H](C)NC(=O)CCC1CC(OC(=O)NCc2cccc3ccccc23)CC2(CCCC(COC(=O)NCCc3ccc(Cl)cc3)O2)O1 (stereo partly drawn)	glycogen synthase kinase-3 (GSK3A per assay name; protocol says GSK3B)	0.69

For the next question, use this molecule.
Ask: Item under review: CC(CCC(=O)OC[C@H]1O[C@H](C#Cc2ccccc2)C=C[C@@H]1Oc1ccc(C)cc1)=NOC[C@@H](O)[C@H]1O[C@@H]2OC(C)(C)O[C@@H]2[C@H]1O . Reported composite z-score?
Result: -0.579

###

experiment-notes: anti-His antibody binders, primary screen, artefact control for SMM control protein annotation, biochemical, small-molecule microarray, 635 nm fluorescence (AID 1128);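 note: score merges feature fluorescence with signal-to-noise for each printed compound spot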
condition-set: anti-His Alexa647 antibody binding, higher = more signal
Tag: TRUE if measured composite z-score is not below 1, FALSE if it is.

Ask: Does the compound CN1C(=O)[C@@]2(CCC(=O)OC(C)(C)C)N=C(c3ccc(OCCCO)cc3)O[C@H]2c2ccccc21 have recorded composite z-score that is 1 or more?
Result: TRUE

Ask: Does the compound CO[C@@H]1COC(=O)[C@@H]2CCCN2C(=O)[C@@H](C)COC(=O)[C@H](COCc2ccccc2)NC(=O)CC=C[C@H]1C have recorded composite z-score that is 1 or more?
Result: FALSE

Ask: Does the compound CO[C@H]1O[C@H](CO)[C@@H](OC(=O)Nc2ccc(C#N)cc2)[C@H](OC(=O)c2cc3ccccc3[nH]2)[C@H]1OC(=O)c1cc2ccccc2[nH]1 have recorded composite z-score that is 1 or more?
Result: TRUE

Ask: Does the compound O=C1[C@H]2[C@H]3[C@H](O)[C@H](O)CC(=NOC[C@@H](O)COCc4ccco4)[C@H]3CC[C@H]2C(=O)N1C1CCCCC1 have recorded composite z-score that is 1 or more?
Result: FALSE

Ask: Does the compound CC(CCC(=O)OC[C@H]1O[C@H](C#Cc2ccccc2)C=C[C@@H]1Oc1ccc(C)cc1)=NO[C@@H](C)c1cn([C@H](CO)Cc2ccccc2)nn1 have recorded composite z-score that is 1 or more?
Result: TRUE

Ask: Does the compound CCc1cc2c(nc1CC)CCN(CCC(C)=NOC(C)CN1CCCc3nc(C)c(C)cc31)C2 (configuration not stated) have recorded composite z-score that is 1 or more?
Result: FALSE

Ask: Does the compound CO[C@H]1COC(=O)[C@H](C)COC(=O)CC=C[C@@H](C)[C@H](OC)COC(=O)CC=C[C@@H]1C have recorded composite z-score that is 1 or more?
Result: FALSE

###

experiment-notes: CREB reporter modulators without forskolin, primary screen, cell-based, PC12, CRE-LacZ reporter, unstimulated (AID 1145)
condition-set: no forskolin, luminescence, 4.5 h, higher = more signal, called active from +8 up or from −8 down
value-type: z-score
Please give the numeric answer without any surrounding text.

Would you please look over these solved cases?
compound	z-score
CCCC[C@@H](O)C1=C(C)C[C@H]2C(=O)N(Cc3ccccc3)C(=O)[C@H]2[C@H]1CO	1.29
CCCCc1nc2c(c3c1C[C@H](C)OC3)CN(CCC(C)C)CC2	7.7
COC(=O)[C@H](C)NC(=O)CCC1CC(OC(=O)NCc2cccc3ccccc23)CC2(CCCC(COC(=O)NCC3CCCCC3)O2)O1 (stereo partly drawn)	0.91
O=C1C[C@@H](O)[C@@H](O)[C@@H]2[C@@H]3C(=O)N(C4CCCCC4)C(=O)[C@@H]3CC[C@H]12	-0.0258

Ask: Item under review: C[N+](C)(C)CCCCCCNC(=O)[C@@H]1C[C@@H]2C(=O)N3CCC[C@H]3C(=O)N2[C@@H]1c1cccc(OCCO)c1 . Reported z-score?
Result: -1.34

Ask: Item under review: C#CCCCON=C1C[C@@H](O)[C@@H](O)[C@@H]2[C@@H]3C(=O)N(CCC(=O)OCC)C(=O)[C@@H]3CC[C@@H]12 . Reported z-score?
Result: 1.15

Ask: Item under review: COC(=O)[C@@H]1CCCN1C(=O)[C@@H](C)CO . Reported z-score?
Result: -0.347

Ask: Item under review: O=C1C[C@]2(c3ccc([N+](=O)[O-])cc3)C(=O)N(CCN3CCOCC3)c3cc(CO)ccc3[C@H]2N1CC12CC3CC(CC(C3)C1)C2 . Reported z-score?
Result: 0.324
